The entries below come with measured TGI values attached.
test system: U251 CNS; assay: NCI tumour cell line growth inhibition, 48 h
Where a SMILES comes first, the peptide text is derived from it. The star is where a group is joined. Fmoc = O=C(OCC1c2ccccc2-c2ccccc21)*; Boc = CC(C)(C)OC(=O)*

compound | qual | TGI (µM)
NCCCNC1(c2cc3ccccc3s2)CCCCC1 | = | 10
CC(C)(C)OC(=O)NCCCCC(NC(=O)OCC1c2ccccc2-c2ccccc21)C(=O)N1CCCC1C(=O)NCC(N)=O (stereo not drawn) (Fmoc-Lys(Boc)-Pro-Gly-NH2; configuration not given here) | = | 33.1
N#CCCN(CCC#N)c1ccc(/C=C2\N=C(c3ccccc3)N(NC(N)=S)C2=O)cc1 | > | 100
CCCCNC(=S)Nc1nc(C(=O)NNC(=S)NC2CCCCC2)cs1 | > | 100
O=C(Cc1nccc2c1[nH]c1ccccc12)OC1C#CCSCC#C/C=C\1 (centres undefined) | > | 100
CC1OC2(CC(OCc3ccccc3)C1OCc1ccccc1)OCCO2 (centres undefined) | > | 100
Brc1ccc2c([C@H]3CN[C@@H](c4c[nH]c5cc(Br)ccc45)CN3)c[nH]c2c1 | = | 4.19
COc1ccc(-c2nc3ccccn3c2/C=C/C(=O)c2cc(OC)c(OC)c(OC)c2)cc1 | = | 30.6
CCSc1cc(=O)n(C)c(=O)n1C | > | 100

====

tested on: HCT-15 colon; assay: NCI tumour cell line growth inhibition, 48 h

compound | tested_target | TGI
COc1ccc2oc(OC)c(CC=C(C)C)c(=O)c2c1C | HCT-15 colon | > 100 µM
COc1ccc(OC)c(/C=C(/C)[N+](=O)[O-])c1 | HCT-15 colon | 3.68 µM
CCN(C(=O)c1cc(F)ccc1Oc1cncnc1N1CC2(CCN(CC3CCC(NS(=O)(=O)CC)CC3)CC2)C1)C(C)C (stereo not drawn) | HCT-15 colon | > 100 µM
CC(=O)OCC1OC(SC2OC(COC(C)=O)C(OC(C)=O)C(OC(C)=O)C2OC(C)=O)C(OC(C)=O)C(OC(C)=O)C1OC(C)=O (stereo not drawn) | HCT-15 colon | > 100 µM
N#C/C(=C\c1cc(Cl)cc(Cl)c1)c1ccccn1 | HCT-15 colon | > 100 µM
CN(C)c1ccccc1CN1CCCN(Cc2ccccc2N(C)C)C1c1ccncc1 | HCT-15 colon | 51.7 µM
O=C(NP(=O)(N1CC1)N1CC1)c1cc(I)ccc1I | HCT-15 colon | > 100 µM
CC1(C)[C@@H](O[C@@H]2OC[C@@H](O[C@@H]3O[C@H](CO)[C@@H](O)[C@H](O)[C@H]3O[C@@H]3OC[C@@H](O)[C@H](O)[C@H]3O)[C@H](O)[C@H]2O[C@@H]2O[C@H](CO)[C@@H](O)[C@H](O)[C@H]2O)CC[C@]2(C)[C@H]3CC[C@]45OC[C@@]6(CC[C@](C)(C=O)C[C@H]64)[C@H](O)C[C@@]5(C)[C@]3(C)CC[C@@H]12 | HCT-15 colon | 4.37 µM
N#CSCC1CC(O)(c2ccccc2)CC(c2ccc(F)cc2)O1 (stereo not drawn) | HCT-15 colon | 4.89 µM
COc1ccc(/C=C2\N=C(c3ccccc3)N(N=C3NC(=O)CC(=O)N3)C2=O)cc1 | HCT-15 colon | > 100 µM
COc1cc(/C=C/C(=O)c2c(C)nc3ccccc3c2C)ccc1OCCCOc1cc2c(cc1OC)C(=O)N1CCC[C@H]1C=N2 | HCT-15 colon | 1.01 µM
COc1ccc2sc(-n3nc4ccccc4c3Nc3nc4ccc(OC)cc4s3)nc2c1 | HCT-15 colon | > 72.1 µM
C/C(=C/C(=O)Nn1c(Cc2ccccc2)n[nH]c1=O)C(=O)O | HCT-15 colon | > 100 µM
COc1cc(/C=C/C(=O)c2ccc(NC(=O)CN3CCN(c4cc5c(cc4F)c(=O)c(C(=O)O)cn5C4CC4)CC3)cc2)cc(OC)c1OC | HCT-15 colon | > 100 µM
CCn1cc(C(=O)O)c(=O)c2cc3c(cc21)S(=O)(=O)CC3 | HCT-15 colon | > 100 µM
CSCCCNC(=O)c1csc(-c2csc(C(CNC(=O)OC(C)(C)C)CNC(=O)OC(C)(C)C)n2)n1 | HCT-15 colon | > 100 µM
CCOc1ccc(/C=N/[N+](C)(C)C)cc1OCC | HCT-15 colon | > 10 µM
O=C(/C=C/c1ccc(O)c(O)c1)c1cc(O)cc(O)c1 | HCT-15 colon | 29.2 µM
